Each entry below carries its reported Bmax.
Experimental System: human Siglec-8 (full-length, on transfected CHO or 293 cells, or native on human eosinophils) (human, UniProt Q9NYZ4 17-499)
Sequence (Q9NYZ4 17-499): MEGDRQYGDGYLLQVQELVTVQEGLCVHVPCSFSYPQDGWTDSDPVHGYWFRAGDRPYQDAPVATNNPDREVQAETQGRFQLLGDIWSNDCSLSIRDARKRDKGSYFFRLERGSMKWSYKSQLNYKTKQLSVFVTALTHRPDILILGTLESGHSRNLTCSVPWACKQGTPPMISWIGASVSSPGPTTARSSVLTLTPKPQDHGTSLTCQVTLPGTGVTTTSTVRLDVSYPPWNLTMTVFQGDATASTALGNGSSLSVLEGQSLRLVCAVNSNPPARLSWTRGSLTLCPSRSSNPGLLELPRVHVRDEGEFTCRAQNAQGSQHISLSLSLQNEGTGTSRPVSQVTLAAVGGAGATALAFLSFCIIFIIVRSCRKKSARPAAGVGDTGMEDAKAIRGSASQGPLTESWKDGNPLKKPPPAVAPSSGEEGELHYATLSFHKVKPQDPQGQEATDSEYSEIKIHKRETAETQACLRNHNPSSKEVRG
Assay Explanation: flow cytometry on 293 cells transiently transfected with full-length human Siglec-8; A647 anti-human Fc-gamma secondary; median fluorescence, nonlinear fit; table under the graph

Siglec8 hzG2v18, monomeric VHH-hIgG1 fusion (Fc NNT) (Fc fusion, Monomeric format; not shown: non-dimerizing human IgG1 Fc variant lacking a hinge (Fc NNT)) EVQLLESGGGEVQPGGSLRLSCAASGSISIFSKYVVAWYRQAPGKEREWVAFIQRGGTANYAESAKGRFTISRDNAKNTVYLQMSSLRAEDTAVYYCNYINSDNEIGGPWGQGTLVTVKP ... 1.05e+06 Median (anti-human A647)
llama anti-Siglec8-G2 VHH (lmG2), monomeric VHH-hIgG1 fusion (Fc NNT) (Fc fusion, Monomeric format; also called parental clone; not shown: non-dimerizing human IgG1 Fc variant lacking a hinge (Fc NNT)) QVTLKESGGGLVRTGGSLRLSCAASGSISIFSMYVVAWYRQAPGKQREWVAFIQRGGTANYADSAKGRFTISRDNAKNTVYLQMASLKPDDTAVYYCNYINSDNEIGGPWGQGTQVTVKP ... 1.36e+06 Median (anti-human A647)
Siglec8 hzG2v17, monomeric VHH-hIgG1 fusion (Fc NNT) (Fc fusion, Monomeric format; not shown: non-dimerizing human IgG1 Fc variant lacking a hinge (Fc NNT)) EVQLLESGGGEVQPGGSLRLSCAASGSISIFSIYVVAWYRQAPGKEREWVAFIQRGGTANYAESAKGRFTISRDNAKNTVYLQMSSLRAEDTAVYYCNYINSDNEIGGPWGQGTLVTVKP ... 1.17e+06 Median (anti-human A647)
hzG2v21 (Fc fusion, also called Siglec8 hzG2v21; monomeric VHH-hIgG1 fusion (Fc NNT); not shown: The non-dimerizing, hinge-less human IgG1 Fc variant (Fc NNT) and any linker to it) VHH: EVQLLESGGGEVQPGGSLRLSCAASGSISIFSSYAMSWYRQAPGKEREWVAFIQRGGTANYAESAKGRFTISRDNAKNTVYLQMSSLRAEDTAVYYCNYINSDNEIGGPWGQGTLVTVKP ... 1.1e+06 Median (anti-human A647)

Now, please, on to the next binder.
Reported Bmax ( hzG2v19 (Fc fusion, also called Siglec8 hzG2v19; monomeric VHH-hIgG1 fusion (Fc NNT); not shown: The non-dimerizing, hinge-less human IgG1 Fc variant (Fc NNT) and any linker to it) VHH: EVQLLESGGGEVQPGGSLRLSCAASGSISIFSSYAVAWYRQAPGKEREWVAFIQRGGTANYAESAKGRFTISRDNAKNTVYLQMSSLRAEDTAVYYCNYINSDNEIGGPWGQGTLVTVKP ) = 1.24e+06 Median (anti-human A647)
